Hi there, I'd appreciate the recorded viability, T/C for every entry that follows.
- Test system: 422866-222-R5-J1-PDC complex spheroid viability
- EXPERIMENTAL DETAILS: Anticancer human tumor 422866-222-R5-J1-PDC patient-derived pancreatic adenocarcinoma cell line growth inhibition [POLQ]
- TEST PARAMETERS: second compound 0.1 µM; first compound 0.0316 µM; stronger effect = lower value
Response body: numeric value in %, unit text excluded.

Task: What value of viability, T/C has been reported for the following compound? CC1COCCN1c1cc(C2(S(C)(=N)=O)CC2)nc(-c2ccnc3[nH]ccc23)n1 (stereo unspecified) + Nc1ccc(C#CCN(C(=O)Cc2ncc(C(F)(F)F)cc2C(F)(F)F)c2ccc(F)cc2)nn1
Result: 92

Task: What value of viability, T/C has been reported for the following compound? CC1COCCN1c1cc(C2(O)CC3CCC(C2)O3)c2cnn(-c3ccn[nH]3)c2n1 (stereo unspecified) + Cc1cccc(N(C)C(=O)C2C(O)CCN2c2nc(C)cc(C(F)(F)F)c2C#N)c1
Result: 75.1

Task: What value of viability, T/C has been reported for the following compound? O=C(c1cc(Cc2n[nH]c(=O)c3ccccc23)ccc1F)N1CCN(C(=O)C2CC2)CC1 + Nc1ccc(C#CCN(C(=O)Cc2ncc(C(F)(F)F)cc2C(F)(F)F)c2ccc(F)cc2)nn1
Result: 91.7

Task: What value of viability, T/C has been reported for the following compound? O=c1[nH]cc(F)c(=O)[nH]1 + Nc1ccc(C#CCN(C(=O)Cc2ncc(C(F)(F)F)cc2C(F)(F)F)c2ccc(F)cc2)nn1
Result: 113

Task: What value of viability, T/C has been reported for the following compound? CC(C)n1c(=O)n(C)c2cnc3cc(F)c(-c4ccc(OCCCN5CCCCC5)nc4)cc3c21 + Nc1ccc(C#CCN(C(=O)Cc2ncc(C(F)(F)F)cc2C(F)(F)F)c2ccc(F)cc2)nn1
Result: 88.6

Task: What value of viability, T/C has been reported for the following compound? CC[C@@]1(O)C(=O)OCc2c1cc1n(c2=O)Cc2cc3c(CN(C)C)c(O)ccc3nc2-1 + Cc1cccc(N(C)C(=O)C2C(O)CCN2c2nc(C)cc(C(F)(F)F)c2C#N)c1
Result: 46.2

Task: What value of viability, T/C has been reported for the following compound? O=C(c1cc(Cc2n[nH]c(=O)c3ccccc23)ccc1F)N1CCN(C(=O)C2CC2)CC1 + COC1C(OC(N)=O)C(O)C(Oc2ccc3c(O)c(NC(=O)c4ccc(O)c(CC=C(C)C)c4)c(=O)oc3c2C)OC1(C)C
Result: 40.1

Task: What value of viability, T/C has been reported for the following compound? CC1COCCN1c1cc(C2(O)CC3CCC(C2)O3)c2cnn(-c3ccn[nH]3)c2n1 (stereo unspecified) + Nc1ccc(C#CCN(C(=O)Cc2ncc(C(F)(F)F)cc2C(F)(F)F)c2ccc(F)cc2)nn1
Result: 58.2

Task: What value of viability, T/C has been reported for the following compound? COc1cc2cc(C(=O)CCC(=O)O)sc2cc1OC + Cc1cccc(N(C)C(=O)C2C(O)CCN2c2nc(C)cc(C(F)(F)F)c2C#N)c1
Result: 101

Task: What value of viability, T/C has been reported for the following compound? COc1cc(C2c3cc4c(cc3C(OC3OC5COC(C)OC5C(O)C3O)C3COC(=O)C23)OCO4)cc(OC)c1O (stereo unspecified) + Nc1ccc(C#CCN(C(=O)Cc2ncc(C(F)(F)F)cc2C(F)(F)F)c2ccc(F)cc2)nn1
Result: 110

Task: What value of viability, T/C has been reported for the following compound? CCCS(=O)(=O)Nc1ccc(F)c(C(=O)c2c[nH]c3ncc(-c4ccc(Cl)cc4)cc23)c1F + Cc1cccc(N(C)C(=O)C2C(O)CCN2c2nc(C)cc(C(F)(F)F)c2C#N)c1
Result: 93

---

- Tested on: 422866-222-R5-J1-PDC complex spheroid viability
- EXPERIMENTAL DETAILS: Anticancer human tumor 422866-222-R5-J1-PDC cell line growth inhibition [POLQ];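 also: spheroids exposed to compounds for one week before readout; percent of DMSO vehicle wells luminescence so 100% = untreated viability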
- TEST PARAMETERS: second compound 0.0316 µM; first compound 3.16 µM; stronger effect = lower value
Binary call on viability, T/C with cut-off 50%: strictly below means T, and equality or higher means F.

Task: Input CCCS(=O)(=O)Nc1ccc(F)c(C(=O)c2c[nH]c3ncc(-c4ccc(Cl)cc4)cc23)c1F + Nc1ccc(C#CCN(C(=O)Cc2ncc(C(F)(F)F)cc2C(F)(F)F)c2ccc(F)cc2)nn1 ; condition: viability, T/C strictly below 50%. Does it hold?
Result: F

Task: Input CCCS(=O)(=O)Nc1ccc(F)c(C(=O)c2c[nH]c3ncc(-c4ccc(Cl)cc4)cc23)c1F + Cc1cccc(N(C)C(=O)C2C(O)CCN2c2nc(C)cc(C(F)(F)F)c2C#N)c1 ; condition: viability, T/C strictly below 50%. Does it hold?
Result: F

Task: Input COc1cc2cc(C(=O)CCC(=O)O)sc2cc1OC + COC1C(OC(N)=O)C(O)C(Oc2ccc3c(O)c(NC(=O)c4ccc(O)c(CC=C(C)C)c4)c(=O)oc3c2C)OC1(C)C ; condition: viability, T/C strictly below 50%. Does it hold?
Result: F

Task: Input COc1cc(C2c3cc4c(cc3C(OC3OC5COC(C)OC5C(O)C3O)C3COC(=O)C23)OCO4)cc(OC)c1O (stereo unspecified) + COC1C(OC(N)=O)C(O)C(Oc2ccc3c(O)c(NC(=O)c4ccc(O)c(CC=C(C)C)c4)c(=O)oc3c2C)OC1(C)C ; condition: viability, T/C strictly below 50%. Does it hold?
Result: T

Task: Input CCc1cc2c(N3CCc4c(cc(Cn5ccnc5)cc4-c4cn(C)nc4C(F)(F)F)C3=O)cc(C)nc2c(OC)n1 + Cc1cccc(N(C)C(=O)C2C(O)CCN2c2nc(C)cc(C(F)(F)F)c2C#N)c1 ; condition: viability, T/C strictly below 50%. Does it hold?
Result: F

Task: Input CC1COCCN1c1cc(C2(S(C)(=N)=O)CC2)nc(-c2ccnc3[nH]ccc23)n1 (stereo unspecified) + Nc1ccc(C#CCN(C(=O)Cc2ncc(C(F)(F)F)cc2C(F)(F)F)c2ccc(F)cc2)nn1 ; condition: viability, T/C strictly below 50%. Does it hold?
Result: T

Task: Input COc1cc(C2c3cc4c(cc3C(OC3OC5COC(C)OC5C(O)C3O)C3COC(=O)C23)OCO4)cc(OC)c1O (stereo unspecified) + Cc1cccc(N(C)C(=O)C2C(O)CCN2c2nc(C)cc(C(F)(F)F)c2C#N)c1 ; condition: viability, T/C strictly below 50%. Does it hold?
Result: T

Task: Input O=c1[nH]cc(F)c(=O)[nH]1 + COC1C(OC(N)=O)C(O)C(Oc2ccc3c(O)c(NC(=O)c4ccc(O)c(CC=C(C)C)c4)c(=O)oc3c2C)OC1(C)C ; condition: viability, T/C strictly below 50%. Does it hold?
Result: F

Task: Input Nc1ccn(C2OC(CO)C(O)C2(F)F)c(=O)n1 (stereo unspecified) + Nc1ccc(C#CCN(C(=O)Cc2ncc(C(F)(F)F)cc2C(F)(F)F)c2ccc(F)cc2)nn1 ; condition: viability, T/C strictly below 50%. Does it hold?
Result: T

Task: Input CC(C)n1c(=O)n(C)c2cnc3cc(F)c(-c4ccc(OCCCN5CCCCC5)nc4)cc3c21 + COC1C(OC(N)=O)C(O)C(Oc2ccc3c(O)c(NC(=O)c4ccc(O)c(CC=C(C)C)c4)c(=O)oc3c2C)OC1(C)C ; condition: viability, T/C strictly below 50%. Does it hold?
Result: T

---

Hi there, I'd appreciate the recorded viability, T/C for every entry that follows.
- System: 422866-222-R5-J1-PDC complex spheroid viability
- EXPERIMENTAL DETAILS: Anticancer human tumor 422866-222-R5-J1-PDC cell line growth inhibition [POLQ];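 also: spheroids exposed to compounds for one week before readout; percent of DMSO vehicle wells luminescence so 100% = untreated viability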
- TEST PARAMETERS: second compound 10 µM; first compound 0.1 µM; stronger effect = lower value
Could you write the number and then its unit?

Task: What value of viability, T/C has been reported for the following compound? C=CC(=O)N1CCN(c2nc(=O)n(-c3c(C)ccnc3C(C)C)c3nc(-c4c(O)cccc4F)c(F)cc23)C(C)C1 (stereo not given) + COC1C(OC(N)=O)C(O)C(Oc2ccc3c(O)c(NC(=O)c4ccc(O)c(CC=C(C)C)c4)c(=O)oc3c2C)OC1(C)C
Result: 26.8%

Task: What value of viability, T/C has been reported for the following compound? COc1ccc([C@@H](O)c2cc(-c3ncnc4cc(N5CCOCC5)ccc34)c(F)cc2Cl)nn1 + Cc1cccc(N(C)C(=O)C2C(O)CCN2c2nc(C)cc(C(F)(F)F)c2C#N)c1
Result: 83.8%

Task: What value of viability, T/C has been reported for the following compound? C=CC(=O)N1CCN(c2nc(=O)n(-c3c(C)ccnc3C(C)C)c3nc(-c4c(O)cccc4F)c(F)cc23)C(C)C1 (stereo not given) + Cc1cccc(N(C)C(=O)C2C(O)CCN2c2nc(C)cc(C(F)(F)F)c2C#N)c1
Result: 28%

Task: What value of viability, T/C has been reported for the following compound? O=C(c1cc(Cc2n[nH]c(=O)c3ccccc23)ccc1F)N1CCN(C(=O)C2CC2)CC1 + Nc1ccc(C#CCN(C(=O)Cc2ncc(C(F)(F)F)cc2C(F)(F)F)c2ccc(F)cc2)nn1
Result: 104%

Task: What value of viability, T/C has been reported for the following compound? CC[C@@]1(O)C(=O)OCc2c1cc1n(c2=O)Cc2cc3c(CN(C)C)c(O)ccc3nc2-1 + Nc1ccc(C#CCN(C(=O)Cc2ncc(C(F)(F)F)cc2C(F)(F)F)c2ccc(F)cc2)nn1
Result: 31.5%
